I'd appreciate it if you could supply normalised response values for the items below.
- Tested on: HDQ-P1
- Measurement Protocol: normalised response (% of control), CellTiter-Glo; higher = more viable cells (100 = DMSO, 0 = benzethonium chloride kill control)
- Particulars: incubation time: 72 h
Please state the figure in %; there is no need to write the unit.

Recorded normalised response (compound C[C@]12C=CC(=O)C=C1CC[C@@H]1[C@@H]2C(=O)C[C@@]2(C)[C@H]1CC[C@]2(O)C(=O)CO [Prednisone] (10000 nM) ): 98.6

Memo: Cn1cc(C[C@@H](N)C(=O)O)c2ccccc21 [1-methyl-D-tryptophan] (5000 nM) , reported normalised response: 111

# compound CC(C)C[C@H](NC(=O)[C@H](CCc1ccccc1)NC(=O)CN1CCOCC1)C(=O)N[C@@H](Cc1ccccc1)C(=O)N[C@@H](CC(C)C)C(=O)[C@@]1(C)CO1 [Carfilzomib] (1000 nM) ; its normalised response = 0.05

Consider CC(C)(C)Cn1c(N)nc2ccc(-c3[nH]c(C(C)(C)C)nc3-c3ccc(F)cc3)nc21 (10000 nM) . Its measured normalised response is 70.7

According to the records, this compound CC/C(=C(\c1ccccc1)c1ccc(OCCN(C)C)cc1)c1ccccc1 [Tamoxifen] (10000 nM) displays normalised response of 99.1

normalised response in this record for C[C@@H](C(=O)O)c1ccc(-c2ccccc2)c(F)c1 [Tarenflurbil] (10000 nM) : 98.5

Memo: NC(=O)c1cccc2cn(-c3ccc([C@@H]4CCCNC4)cc3)nc12 [MK-4827] (10000 nM) , reported normalised response: 94.3

* * *

Please provide measured normalised response for the entries that follow.
- Test system: MDA-MB-231
- Measurement Protocol: normalised response (% of control), CellTox Green; higher = less cell death (100 = DMSO, 0 = benzethonium chloride kill control)
- Particulars: incubation time: 72 h
Reply with just the number (in %).

For record COc1cc2c(cc1-c1c(C)noc1C)ncc1[nH]c(=O)n([C@H](C)c3ccccn3)c12 [I-BET151] (1000 nM) the listed normalised response is 123

Value of measured normalised response for the entry COc1cc2c(cc1-c1c(C)noc1C)ncc1[nH]c(=O)n([C@H](C)c3ccccn3)c12 [I-BET151] (10000 nM) : 45.2

Entry COc1cc2c(Oc3ccc(NC(=O)C4(C(=O)Nc5ccc(F)cc5)CC4)cc3F)ccnc2cc1OCCCN1CCOCC1 [Foretinib] (100 nM) , normalised response reported as 65.1

The measured normalised response associated with Nc1nc(Cl)nc2c1ncn2[C@@H]1O[C@H](CO)[C@@H](O)[C@@H]1F [Clofarabine] (100 nM) reads 106

* * *

- System: BT-474
- Measurement Protocol: normalised response (% of control), CellTox Green; higher = less cell death (100 = DMSO, 0 = benzethonium chloride kill control)
- Particulars: incubation time: 72 h
Property Measured: normalised response (%)
Supply the numeric figure in %, leaving out any unit text.

Reported normalised response of CCCCCOC(=O)Nc1nc(=O)n([C@@H]2O[C@H](C)[C@@H](O)[C@H]2O)cc1F [Capecitabine] (100 nM) : 91.4

For reference, reported normalised response for NC1(c2ccc(-c3nc4ccn5c(=O)[nH]nc5c4cc3-c3ccccc3)cc2)CCC1 [MK-2206] (10 nM) stands at 99

Consider CC(C)NC[C@@H](C(=O)N1CCN(c2ncnc3c2[C@H](C)C[C@H]3O)CC1)c1ccc(Cl)cc1 [GDC-0068] (100 nM) . Its measured normalised response is 96.9

The measured normalised response associated with CC(C)(C)Cn1c(N)nc2ccc(-c3[nH]c(C(C)(C)C)nc3-c3ccc(F)cc3)nc21 (100 nM) reads 102

The molecule NC(=O)c1cccc2cn(-c3ccc([C@@H]4CCCNC4)cc3)nc12 [MK-4827] (100 nM) showed normalised response equal to 88.2

Reported normalised response ( CN1CCN(c2nc(C3=C(c4c[nH]c5ccccc45)C(=O)NC3=O)c3ccccc3n2)CC1 [Sotrastaurin] (1000 nM) ) = 98.8

Recorded result, CCN(CC)CCOc1ccc(C(=C(Cl)c2ccccc2)c2ccccc2)cc1 [Clomifene] (100 nM) , normalised response: 96.8
